- test_description: Distribution in the 1-octanol/buffer pH 7.4 system
- Type: physicochemical
- settings: calculated by Henderson–Hasselbalch equation
quantity_name: logK0, distribution coefficient for the uncharged particles

Item under review: O=C(Cn1cnc2c(sc(=S)n2-c2ccc(F)cc2)c1=O)NCC(O)(Cn1cncn1)c1ccc(F)cc1F (stereo not shown) [VI] . Reported logK0, distribution coefficient for the uncharged particles?
-4.72

Item under review: O=c1c2sc(=S)n(-c3ccc(F)cc3)c2ncn1CC(O)(Cn1cncn1)c1ccc(F)cc1F (stereo not shown) [III] . Reported logK0, distribution coefficient for the uncharged particles?
-4.76

Item under review: Cc1ccc(-n2c(=S)sc3c(=O)n(CCN4CCN(CC(O)(Cn5cncn5)c5ccc(F)cc5F)CC4)cnc32)cc1 (stereo not shown) [XII] . Reported logK0, distribution coefficient for the uncharged particles?
-3.95

Item under review: Cc1ccc(-n2c(=S)sc3c(=O)n(CC(=O)NCC(O)(Cn4cncn4)c4ccc(F)cc4F)cnc32)cc1 (stereo not shown) [IV] . Reported logK0, distribution coefficient for the uncharged particles?
-4.68

Item under review: COc1ccccc1-n1c(=S)sc2c(=O)n(CC(O)(Cn3cncn3)c3ccc(F)cc3F)cnc21 (stereo not shown) [II] . Reported logK0, distribution coefficient for the uncharged particles?
-4.66

Item under review: COc1ccccc1-n1c(=S)sc2c(=O)n(CC(=O)NCC(O)(Cn3cncn3)c3ccc(F)cc3F)cnc21 (stereo not shown) [VII] . Reported logK0, distribution coefficient for the uncharged particles?
-4.73

Item under review: O=C(Cn1cnc2c(sc(=S)n2-c2ccc(Cl)cc2)c1=O)NCC(O)(Cn1cncn1)c1ccc(F)cc1F (stereo not shown) [V] . Reported logK0, distribution coefficient for the uncharged particles?
-4.69

* * *

- test_description: Membrane permeability assay through the PermeaPad barrier (Franz diffusion cell)
- Assay type: in vitro ADME
- settings: buffer pH 7.4, 37 °C, values are Papp multiplied by 10^5, read-out: Papp⋅10^5, apparent permeability coefficient
quantity_name: Papp at 5 h (×10⁻⁶ cm/s)
Reply with just the number (in ×10⁻⁶ cm/s).

Item under review: Cc1ccc(-n2c(=S)sc3c(=O)n(CCN4CCN(CC(O)(Cn5cncn5)c5ccc(F)cc5F)CC4)cnc32)cc1 (stereo not shown) [XII] . Reported Papp at 5 h?
18.8
